- Organism: Homo sapiens
- PROTOCOL_DESCRIPTION: Inhibition of transglutaminase in human keratinocytes assessed as mean transglutaminase activity level at 4.1 10^-5M in presence of 10 uM retinal relative to retinal alone
- Format: cell-based
- Parameters: scale not given: the % may be the effect or the level left
MEASURED_QUANTITY: Activity (%)
Please give a number only; it is taken to be in %.

Below, each entry is followed by its recorded Activity result.
CC(C)CCCCCCCCCCCCCCC(=O)O | 67
CCCCCCC(O)CCCCCCCCCCC(=O)O (stereo not drawn) | 32.4
COc1cc(C=O)ccc1O | 98

**Query** Name the recorded Activity for CCCCCCCCCCCCCC(=O)O .
**Result** 75.1

**Query** Any idea what Activity was measured for CCCCC/C=C\C/C=C\CCCCCCCC(=O)O ?
**Result** 76.8

**Query** So what's the measured Activity for this one? CC/C=C\C/C=C\C/C=C\CCCCCCCC(=O)O
**Result** 65.9

**Query** Given the molecule O=C(O)CCCCCCCCCCCCCCC(=O)O , what is its reported Activity?
**Result** 105

**Query** Quick check: Activity of CCCCCCCC/C=C/CCCCCCCC(=O)O ?
**Result** 58.2

* * *

- Species: Homo sapiens
- PROTOCOL_DESCRIPTION: Inhibition of transglutaminase in human keratinocytes assessed as mean transglutaminase activity level at 3.73 10^-4M in presence of 10 uM retinal relative to retinal alone
- Assay type: cell-based
- Set-up: scale not given: the % may be the effect or the level left
MEASURED_QUANTITY: Activity (%)
Give the value in % but do not write % after it.

Recorded results for 3 compounds are shown here.
CCCCCCCCCCCCCC(=O)O | -6
COc1cc(C=O)ccc1O | 101
CC/C=C\C/C=C\C/C=C\CCCCCCCC(=O)O | 68

Below: the item to evaluate.
**Query** Can you share its Activity? I mean this compound: O=C(O)CCCCCCCCCCCCCCC(=O)O
**Result** 43.4

* * *

Measured Activity accompanies every entry in the list below.
- Species: Homo sapiens
- PROTOCOL_DESCRIPTION: Inhibition of transglutaminase in human keratinocytes assessed as mean transglutaminase activity level at 8.2 10^-6M in presence of 10 uM retinal relative to retinal alone
- Type: cell-based
- Parameters: scale not given: the % may be the effect or the level left
Note: unit % is implicit; provide only the numeric part.

CC(C)CCCCCCCCCCCCCCC(=O)O | 103
CCCCCCC(O)CCCCCCCCCCC(=O)O (configuration not stated) | 97.6
CC/C=C\C/C=C\C/C=C\CCCCCCCC(=O)O | 119

**Query** Recorded Activity for CCCCCCCCCCCCCC(=O)O , please?
**Result** 74.2

* * *

- ASSAYED_TARGET: Lecithin retinol acyltransferase (Bos taurus) (UniProt Q9BGL2);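 further: bovine retinal pigment epithelium microsomes given retinol plus palmitoyl-CoA, 5 min reaction, ester formation read by HPLC, inhibition expressed versus untreated control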
- Sequence (Q9BGL2 whole entry): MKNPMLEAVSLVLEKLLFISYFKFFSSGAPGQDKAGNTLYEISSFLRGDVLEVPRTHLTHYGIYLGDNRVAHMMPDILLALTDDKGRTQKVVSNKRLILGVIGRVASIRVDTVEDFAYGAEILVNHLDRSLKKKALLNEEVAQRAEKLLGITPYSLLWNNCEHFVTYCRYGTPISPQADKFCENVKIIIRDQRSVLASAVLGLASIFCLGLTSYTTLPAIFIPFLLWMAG
- CONDITION_SUMMARY: at 100 µM
- Description: Inhibition of LRAT in bovine RPE microsomes at 100 uM using retinol substrate in presence of Palmitoyl-CoA incubated for 5 mins by HPLC analysis relative to control
MEASURED_QUANTITY: inhibition (%)
Provide only the numeric value, understood in %.

CCC(=O)C=CC1C(C)=CCCC1(C)C (centres undefined) | 77
CCOC(=O)C1=C(C)C=CCC1(C)C | 49
CCCCC/C=C\C/C=C\CCCCCCCC(=O)NCCCN(C)C | 75
C/C=C/C(=O)C1C(C)C=CCC1(C)C (centres undefined) | 95
C/C=C/C(=O)C1=C(C)C=CCC1(C)C | 79

Okay, next one:
**Query** Which measured inhibition value corresponds to CC(=O)c1cc2c(cc1C)C(C)(C)C(C)CC2(C)C (centres undefined) ?
**Result** 33

* * *

- Organism: Homo sapiens
- PROTOCOL_DESCRIPTION: Inhibition of transglutaminase in human keratinocytes assessed as mean transglutaminase activity level at 3 10^-5M in presence of 10 uM retinal relative to retinal alone
- Format: cell-based
- Set-up: scale not given: the % may be the effect or the level left
Parameter Activity: see the listing below.
Return type: number; implicit unit %.

Take a look at these entries with their results.
CC1(C)[C@@H](O)CC[C@]2(C)[C@H]3C(=O)C=C4[C@@H]5C[C@@](C)(C(=O)O)CC[C@]5(C)CC[C@@]4(C)[C@]3(C)CC[C@@H]12 | -0.3
CCCCCCCC/C=C\CCCCCCCCCCCCCC(=O)N[C@@H](COP(=O)([O-])OCC[N+](C)(C)C)[C@H](O)/C=C/CCCCCCCCCCCCC | 45
COc1cc(NS(C)(=O)=O)ccc1Nc1c2ccccc2nc2ccccc12 | -10

With those in mind, consider the next compound.
**Query** I am curious: what Activity value has been reported for CC1(C)[C@@H](OC(=O)CCC(=O)O)CC[C@]2(C)[C@H]3C(=O)C=C4[C@@H]5C[C@@](C)(C(=O)O)CC[C@]5(C)CC[C@@]4(C)[C@]3(C)CC[C@@H]12 ?
**Result** -7.1

* * *

Each item that follows carries a reported Activity.
- Species on record: Homo sapiens
- PROTOCOL_DESCRIPTION: Inhibition of transglutaminase in human keratinocytes assessed as mean transglutaminase activity level at 3.29 10^-7M in presence of 10 uM retinal relative to retinal alone
- Format: cell-based
- Parameters: scale not given: the % may be the effect or the level left

**Query** I'd like to know its Activity. The compound in question is CCCCCCCCCCCCCC(=O)O
**Result** 101%

**Query** Give the measured Activity of CC/C=C\C/C=C\C/C=C\CCCCCCCC(=O)O .
**Result** 98%

**Query** Param item = CCCCCCCC/C=C/CCCCCCCC(=O)O ; retrieve measured Activity.
**Result** 69%

**Query** What does the record list as Activity for CC(C)CCCCCCCCCCCCCCC(=O)O ?
**Result** 123%

**Query** Request the reported Activity associated with CCCCC/C=C\C/C=C\CCCCCCCC(=O)O
**Result** 60.2%

**Query** Endpoint output: Activity of COc1cc(C=O)ccc1O . Value?
**Result** 93%

**Query** Fill in the blank: the reported Activity of CCCCCCC(O)CCCCCCCCCCC(=O)O (configuration not stated) is ____.
**Result** 82%

* * *

- ASSAYED_TARGET: Diacylglycerol O-acyltransferase 1 (Bos taurus);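 further: ARAT activity in bovine RPE microsomes with retinol as substrate and dilauroyl phosphatidylcholine present, 5 min incubation, HPLC readout, inhibition expressed versus control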
- CONDITION_SUMMARY: at 100 µM
- Description: Inhibition of ARAT in bovine RPE microsomes at 100 uM using retinol substrate in presence of dilauroyl-phosphatidyl choline incubated for 5 mins by HPLC analysis relative to control
MEASURED_QUANTITY: inhibition
Quick note: number first, unit second.

Reference set (7 entries):
CCCCCCCCCCCCCC(=O)N(C)CC(=O)O | 41%
CCCCC/C=C\C/C=C\CCCCCCCC(=O)NCCCN(C)C | 69%
CC(=O)/C=C/C=C(\C)CCC=C(C)C | 12%
CCCCCCCC/C=C\CCCCCCCC[N+](C)(C)CC(=O)[O-] | 47%
CC1=CC(C)C(CO)C(C)C1 (stereo not drawn) | 18%
CCC=CCCC=CC=O | 20%
CCC(=O)C=CC1C(C)=CCCC1(C)C (stereo not drawn) | 67%

**Query** Suppose we examine the compound CCCCCCCCCCCC(=O)NCCO ; what inhibition value has been reported?
**Result** 13%

* * *

- Species: Homo sapiens
- PROTOCOL_DESCRIPTION: Inhibition of transglutaminase in human keratinocytes assessed as mean transglutaminase activity level at 3.73 10^-7M in presence of 10 uM retinal relative to retinal alone
- Assay type: cell-based
- Design: scale not given: the % may be the effect or the level left
MEASURED_QUANTITY: Activity (%)
// note: answer is a bare numeric in %

COc1cc(NS(C)(=O)=O)ccc1Nc1c2ccccc2nc2ccccc12 | 109
CCCCCCCC/C=C\CCCCCCCCCCCCCC(=O)N[C@@H](COP(=O)([O-])OCC[N+](C)(C)C)[C@H](O)/C=C/CCCCCCCCCCCCC | 91.6
CC1(C)[C@@H](OC(=O)CCC(=O)O)CC[C@]2(C)[C@H]3C(=O)C=C4[C@@H]5C[C@@](C)(C(=O)O)CC[C@]5(C)CC[C@@]4(C)[C@]3(C)CC[C@@H]12 | 126

**Query** Which Activity value belongs to CC1(C)[C@@H](O)CC[C@]2(C)[C@H]3C(=O)C=C4[C@@H]5C[C@@](C)(C(=O)O)CC[C@]5(C)CC[C@@]4(C)[C@]3(C)CC[C@@H]12 ?
**Result** 120

* * *

Reported Activity values follow for various molecules
- Species: Homo sapiens
- PROTOCOL_DESCRIPTION: Inhibition of transglutaminase in human keratinocytes assessed as mean transglutaminase activity level at 1.23 10^-5M in presence of 10 uM retinal relative to retinal alone
- Type: cell-based
- Set-up: scale not given: the % may be the effect or the level left
The reply should be a number in %, with the unit left off.

CCCCCCC(O)CCCCCCCCCCC(=O)O (configuration not stated) | -5.2

**Query** Give its Activity value. Item: O=C(O)CCCCCCCCCCCCCCC(=O)O
**Result** 130

**Query** Name the recorded Activity for CC(C)CCCCCCCCCCCCCCC(=O)O .
**Result** 80

**Query** What does the data say about its Activity? Entry: CCCCC/C=C\C/C=C\CCCCCCCC(=O)O
**Result** 62.6

**Query** Value lookup for Activity; key = CCCCCCCC/C=C/CCCCCCCC(=O)O
**Result** 80.9

**Query** Please look up its Activity: CC/C=C\C/C=C\C/C=C\CCCCCCCC(=O)O
**Result** 94.9

**Query** Which Activity is listed for COc1cc(C=O)ccc1O ?
**Result** 82
